SYSTEM NAME: cathepsin B (Homo sapiens)
Construct: purchased Sigma
ASSAY METHOD TEXT: Cathepsin B inhibition (KI)
Type: biochemical
TEST CONDITIONS: Table 2, Z-Leu--AA--CONH--CH2 CH(OH)-R; read-out: KI Cat B
pKi: −log10 of the molar value.
RECORDED ENDPOINT: pKi

(P) CCC(NC(=O)C(CC(C)C)NC(=O)OCc1ccccc1)C(=O)C(=O)NCC(O)c1ccccc1 (centres unmarked)
(Q) CC(C)C[C@H](NC(=O)OCc1ccccc1)C(=O)N[C@@H](Cc1ccccc1)C(=O)C(=O)NCC(O)c1ccccc1 (some centres unmarked)
Task: Lower value of pKi belongs to which: P or Q ? Label of pick, please.
Result: Q
(Q: 5.68, P: 6.43)

----------
SYSTEM NAME: Calpain I from human erythrocytes (Homo sapiens)
Construct: Calpain I was purified from human erythrocytes; from tissue; host or cells: human erythrocytes
Sequence (P07384 1-714): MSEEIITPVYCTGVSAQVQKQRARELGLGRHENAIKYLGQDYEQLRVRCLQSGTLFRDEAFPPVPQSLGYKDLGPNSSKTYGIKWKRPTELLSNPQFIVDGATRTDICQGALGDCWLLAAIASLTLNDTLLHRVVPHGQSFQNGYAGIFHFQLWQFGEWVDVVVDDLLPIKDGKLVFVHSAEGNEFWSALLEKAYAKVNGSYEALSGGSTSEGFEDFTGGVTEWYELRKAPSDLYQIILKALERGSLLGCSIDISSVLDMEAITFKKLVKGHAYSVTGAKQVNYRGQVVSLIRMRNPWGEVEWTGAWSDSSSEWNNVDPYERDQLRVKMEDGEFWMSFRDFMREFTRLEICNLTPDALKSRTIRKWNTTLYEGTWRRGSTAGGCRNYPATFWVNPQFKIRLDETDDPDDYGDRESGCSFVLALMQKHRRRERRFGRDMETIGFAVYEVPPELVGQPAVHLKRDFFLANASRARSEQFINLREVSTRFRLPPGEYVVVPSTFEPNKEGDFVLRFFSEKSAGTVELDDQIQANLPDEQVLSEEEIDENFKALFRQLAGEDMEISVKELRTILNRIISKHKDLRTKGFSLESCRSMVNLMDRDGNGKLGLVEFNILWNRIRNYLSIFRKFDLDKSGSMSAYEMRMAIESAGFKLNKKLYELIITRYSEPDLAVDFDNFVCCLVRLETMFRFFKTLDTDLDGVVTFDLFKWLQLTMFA
Sequence (P04632 1-268 partner): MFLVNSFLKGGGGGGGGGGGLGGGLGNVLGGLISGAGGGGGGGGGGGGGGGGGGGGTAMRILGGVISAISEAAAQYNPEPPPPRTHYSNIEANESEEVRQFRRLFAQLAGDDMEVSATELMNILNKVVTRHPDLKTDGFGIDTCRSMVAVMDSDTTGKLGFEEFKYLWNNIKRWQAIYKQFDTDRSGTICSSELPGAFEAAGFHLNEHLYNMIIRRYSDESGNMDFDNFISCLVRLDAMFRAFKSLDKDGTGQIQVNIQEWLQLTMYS
ASSAY METHOD TEXT: Calpain I inhibition, Suc-Leu-Tyr-AMC hydrolysis (KI)
Assay type: biochemical
TEST CONDITIONS: Table 1, Z-Leu--AA--CONHR; read-out: KI Cal I
Method: HEPES, heparin, and A23187 were obtained from Calbiochem. Suc-Leu-Tyr-AMC and chromogenic substrates were obtained from Sigma. Calpain I was purified from human erythrocytes according to the method of Kitahara (Kitahara et al., J. Biochem. 95, 1759-1766) omitting the Blue-Sepharose step. Calpain II from rabbit muscle and cathepsin B were purchased from Sigma. Papain was purchased from Calbiochem. Peptide α-ketoamides were assayed as reversible enzyme inhibitors. […]
pKi: −log10 of the molar value.
RECORDED ENDPOINT: pKi

MOLECULE	pKi
CCC(NC(=O)C(CC(C)C)NC(=O)OCc1ccccc1)C(=O)C(=O)NCc1nccc2ccccc12 (stereo not drawn)	6.60
CCC(NC(=O)C(CC(C)C)NC(=O)OCc1ccccc1)C(=O)C(=O)NCCc1c[nH]c2ccccc12 (stereo not drawn)	6.52
CC(C)CC(NC(=O)OCc1ccccc1)C(=O)NC(Cc1ccccc1)C(=O)C(=O)NCCCN1CCCc2ccccc21 (stereo not drawn)	6.42
